Reference for the values: patent US20250101013A1

tested.target: UniProt P30542
Sequence (P30542 whole entry): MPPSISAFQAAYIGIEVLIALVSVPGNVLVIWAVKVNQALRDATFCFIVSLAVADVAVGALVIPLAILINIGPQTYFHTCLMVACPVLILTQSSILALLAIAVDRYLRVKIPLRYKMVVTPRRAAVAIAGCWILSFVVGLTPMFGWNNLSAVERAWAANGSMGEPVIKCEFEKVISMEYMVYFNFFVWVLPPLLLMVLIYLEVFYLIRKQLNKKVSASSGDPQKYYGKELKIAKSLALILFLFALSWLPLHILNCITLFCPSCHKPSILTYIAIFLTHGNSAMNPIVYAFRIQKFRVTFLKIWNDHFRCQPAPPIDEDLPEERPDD
assay.details: Intracellular cAMP functional assay (HTRF), A1
Assay type: cell-based
stated.conditions: HEK293 cells expressing recombinant human receptor
pEC50: −log10 of the molar value.
attribute.measured: pEC50

// worked examples, pEC50 included
INSERT INTO assay_data (compound, recorded_result) VALUES
  ('N#Cc1cccc(-c2nc(Nc3n[nH]c(C4CC4)n3)sc2-c2ccncn2)c1 [Compound 24]', 7.62),
  ('N#Cc1cccc(-c2nc(Nc3n[nH]c(C4CC4)n3)sc2-c2ccnnc2)c1 [Compound 25]', 8.59),
  ('Cc1cnccc1-c1sc(Nc2nc[nH]n2)nc1-c1cccc(C#N)c1 [Compound 22]', 8.64);

I. Cc1cnccc1-c1sc(Nc2n[nH]c(C3CC3)n2)nc1-c1cccc(C#N)c1 [Compound 3]
II. CCc1nc(Nc2nc(-c3cccc(C#N)c3)c(-n3ccnc3CO)s2)n[nH]1 [Compound 20]
III. Cc1cncnc1-c1sc(Nc2n[nH]c(C3CC3)n2)nc1-c1cccc(C#N)c1 [Compound 27]
IV. N#Cc1cccc(-c2nc(Nc3nc[nH]n3)sc2-n2ccnc2CO)c1 [Compound 19]
Please produce an ascending ranking of these compounds based on pEC50. List the labels in the requested order.
IV, II, III, I
